- Test system: K4 kissing-loop RNA reporter;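 further: bound reporter read as fluorescence of individual clusters on recovered sequencing chips by microscopy, with normalized cluster intensities fitted with a binding model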
- Assay info: apparent KD of K4 kissing-loop reporter; higher = weaker reporter binding
- Test parameters: Eterna round: R107; input ligand: tryptophan 2.4 mM
Record 1 whenever apparent KD of K4 kissing-loop reporter is at 200 nM or higher; record 0 when lower.

{"Construct sequence": "UUGACCAAAUUCCGGUGAUCAUCGCCGCCGCGAGGACCGGUACGGCCGCCACUCGUCCCUAUGCUCGGAGUAGUGAUGUUAUUCA [theeternabot_sameState_KL_Trp_A_43]", "Target desc": "K4 kissing-loop RNA reporter", "Qualitative label": 1}
{"Construct sequence": "AAGGCCACGAGAAGGAGCGUGCUAUGGAGUGAUGUUCCAAUGUAGACCUAAGGUCUACAAGCACAGGUAGGUCGCUCGUGGUCAA [Omei KL Arginine B SS A v2]", "Target desc": "K4 kissing-loop RNA reporter", "Qualitative label": 0}
{"Construct sequence": "ACGUGCACCAGUGAUGUUGGAAAAUAUGAAGGAGCGGGAGAAAACCCAGGUAGGUCGCAUAAUAGCACGAGCCACGAAAGUGGCA", "Target desc": "K4 kissing-loop RNA reporter", "Qualitative label": 0}
